B1: TNXB (parent)
chain: LLQRELMVPGTRHSAVLRDLRSGT

# Variants of: B1
# ASSAY_INFO: protein stability index of a GFP-peptide fusion (GPS, HEK-293T) (PSI 1-6); higher = more stable;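 further: lentivirally expressed fusions sorted by FACS into six bins by GFP to DsRed ratio, PSI derived from sequencing read proportions per bin multiplied by bin number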
# RUN_PARAMETERS: c terminus: a fixed tail appended
TEST_READOUT: protein stability index

| VARIANT_LABEL | REPORTED_MEASUREMENT |
| --- | --- |
| L2S | 3.4 |
| A15M | 2.43 |
| T11Y | 1.94 |
| V8E | 2.62 |
| A15R | 3.4 |
| G23L | 1.81 |
| L20S | 3.38 |
| S14Q | 2.85 |
| R12E | 2.39 |
| Q3C | 1.93 |
| D19G | 2.31 |
| S22L | 2.04 |
| Q3V | 1.58 |
